Test system: Plasmodium berghei
Experiment: Screen against P. berghei liver stage (PbLuc), transformed with Luciferase, at 10uM
Format: functional, HepG2
Conditions: tested at 10 uM
About 8,600 (12%) of roughly 69,000 compounds showed an effect of 50% or more. Shown is part of a subset that was picked to be rich in strong results.
endpoint_label: INHIBITION (%)
One number for each entry, in %.

Consider the following items and state reported INHIBITION for each.
1. CCC(CC)CN1CCN(CC(=O)Nc2ccc3nsnc3c2)CC1
2. CN(CCCc1cc(-c2ccc(F)cc2)n(C)n1)CC(N)=O
3. Cc1noc(C2CCCCN2C(=O)NCc2ccco2)n1 (stereo unspecified)
4. Cc1cc2nc(C(C)C)cc(N3CCC(Oc4ncccn4)CC3)n2n1
5. Cn1cccc1CNC(=O)N(CCO)C1CCCc2ccccc21 (stereo unspecified)

8.99
-65.6
26.4
-17.1
26.8

Need INHIBITION, item Cc1cnn(CC2CCCN2C(=O)c2cccnc2-n2cncn2)c1 (stereo unspecified)
31.9

###

System: Plasmodium berghei
Test: Screen against P. berghei liver stage (PbLuc), transformed with Luciferase, at 10uM
Format: functional, HepG2
Conditions: tested at 10 uM
About 8,600 (12%) of roughly 69,000 compounds showed an effect of 50% or more. The entries come from a sample that favours strong results as a whole.
endpoint_label: INHIBITION
Note: state the figure and append the unit.

compound	endpoint_label	reported_measurement
CN(C)[C@@H]1CN(Cc2ccccn2)C[C@H]1c1cn(C)c2ccccc12	INHIBITION	13.55%
c1csc(CN2CCO[C@H]3[C@H](OCC4CCCC4)CC[C@@H]32)n1	INHIBITION	41.2%
CC(C)C(C)NC(=O)c1cc(Br)c2c(c1)OCCO2 (stereo unspecified)	INHIBITION	23.5%
Cc1nccn1CC1CCCN(S(=O)(=O)c2cnn(C)c2)C1 (stereo unspecified)	INHIBITION	42.5%
CC(C)c1nccn1-c1nccnc1C1CCCN1Cc1ccccc1 (stereo unspecified)	INHIBITION	28.5%

// moving on: another record for INHIBITION
Need INHIBITION, item CCc1ccccc1Nc1noc2c1CN(C(=O)c1ccn(C)n1)CC2
-3.35%

###

Consider the following compounds; for each one, report its INHIBITION.
System: Plasmodium berghei
Test: Screen against P. berghei liver stage (PbLuc), transformed with Luciferase, at 10uM
Type: functional, HepG2
Details: tested at 10 uM
Among all 69,000 compounds or so, about 8,600 (12%) showed an effect of 50% or more. For the sample, strong results were picked, then their nearest neighbours and some compounds at random.
One number for each entry, in %.

The following compounds have reported results that may help.
compound	INHIBITION (%)
O=C(Nc1ccccn1)c1cncc(C2CCNCC2)n1	-35.5
CS(=O)(=O)NCC1CCCCN1C(=O)c1ccsc1 (stereo not drawn)	59.5
Cc1nc2n(n1)CC(Nc1nc(-c3ccccc3)no1)CC2 (stereo not drawn)	-6.51
Cc1ccoc1C(=O)N1C[C@@H](N2CCN(C)CC2)[C@H]2OCCC[C@H]21	-26.5
CCn1cnnc1CNC(=O)c1cc(Cl)ccc1OC	-9.98
Cc1ccsc1CNC(=O)N(C)Cc1cnn(C)c1	-14.86
Cc1nc(CNC(=O)N(C)Cc2cnn(C)c2)cs1	15.05
Cn1cnnc1CNC(=O)c1ccc(Br)cc1O	-48.5

Consider the following items and state reported INHIBITION for each.
1. CSCC[C@H](NC(=O)Cn1ccc2ccc(Cl)cc21)C(=O)O
2. CCc1ncnc(N2CCOCC2C2CC2)c1F (stereo not drawn)
3. COCCO[C@@H]1CCN(C(=O)c2ccc(C)o2)[C@@H]1Cc1cnn(C)c1

[-30.8, 57.5, 21.6]

Consider the following items and state reported INHIBITION for each.
1. O=C(c1ccnnc1)N1CC[C@@H](O)[C@@H]1Cc1ccccc1
2. CCn1nc2c(cc1=O)CN(Cc1nc(-c3cccnc3)no1)CC2
3. CC(C)c1nc(CN(C)C(=O)CCc2ccc3c(c2)OCO3)cs1
4. CN1CCN(Cc2cccnc2)C(=O)C12CCN(Cc1ccco1)CC2
5. Cc1nc(C(C)C)sc1C(=O)NCC(C)(C)N1CCOCC1

1: -3.58; 2: -56.575; 3: 19.4; 4: 32.1; 5: -20.1

Consider the following items and state reported INHIBITION for each.
1. COCCO[C@H]1CCN(C(=O)c2ccco2)[C@H]1Cc1cnn(C)c1
2. COCCO[C@H]1CCN(C(=O)c2cccnc2)[C@H]1Cc1cnn(C)c1
3. CN(Cc1cnc2ccccc2c1)C(=O)C(c1ccccc1F)N(C)C (stereo not drawn)

[-22.5, 1.9, 4.64]

Consider the following items and state reported INHIBITION for each.
1. Cc1nc(CNCC(C)c2nc3ccccc3o2)cs1 (stereo not drawn)
2. Cc1csc(CNCC(C)c2nc3ccccc3o2)n1 (stereo not drawn)
3. COCCO[C@H]1CCN(C(=O)c2ccsc2)[C@H]1Cc1cnn(C)c1
4. CN(Cc1cnn(C)c1)C(=O)C(c1ccccc1)N1CCSCC1 (stereo not drawn)
5. CS(=O)(=O)c1ccc(NC(=O)N2C[C@H](O)[C@@H](N3CCOCC3)C2)cc1
6. Cc1ccc(-n2nnc(C(=O)NC(C)C)c2C2CC2)cc1

1. 20
2. 48.3
3. -17.9
4. -13.4
5. 67.5
6. 15.5

Consider the following items and state reported INHIBITION for each.
1. COc1cnc(C2(O)CCN(C(=O)c3scnc3C)CC2)c(OC)n1
2. CC(O)CN1CCN(C(=O)c2sccc2C2CC2)CC1 (stereo not drawn)
3. COc1ccc2nnc(CCC(=O)Nc3nc(C)c(C)s3)n2n1
4. O=C(NCC1CC1)Nc1cnc2ccc(F)cc2c1O
5. CC(C)C(C)NC(=O)Nc1cccc(OCC#N)c1 (stereo not drawn)
6. Cc1ncsc1CNCC(C)c1nc2ccccc2o1 (stereo not drawn)
7. CO[C@H]1CC[C@H]2[C@H]1OCCN2Cc1ccc(F)c(F)c1

1: 36.7; 2: -1.14; 3: 24.2; 4: 23.2; 5: -16; 6: 50; 7: 22.4

Consider the following items and state reported INHIBITION for each.
1. COc1c(C2CCCN2C(=O)c2scnc2C)c(C)nn1C (stereo not drawn)
2. COc1cnc(C2(O)CCN(C(=O)c3ccco3)CC2)c(OC)n1
3. CCc1ncc(C(=O)N2C[C@@H](C)O[C@@H](C)C2)cn1
4. CCn1cnnc1CNC(=O)c1cc(Cl)ccc1F
5. CC(C)CCOCCNC(=O)Nc1ccc(F)c(C(N)=O)c1

1: 25.1; 2: 29.3; 3: 24.8; 4: 56.4; 5: -25.9

Consider the following items and state reported INHIBITION for each.
1. O=C(Nc1ccc(-n2cccn2)cc1)N1C[C@H](O)[C@@H](N2CCOCC2)C1
2. CCc1ncc(C(=O)N2CC(N3CCCCC3)C2)cn1
3. CCO[C@@H]1CCN(C(=O)c2ccc[nH]2)[C@@H]1Cc1cnn(C)c1
4. CCO[C@@H]1CCN(C(=O)c2ccnnc2)[C@@H]1Cc1cnn(C)c1
5. COCCO[C@@H]1CCN(C(=O)c2ccnnc2)[C@H]1Cc1cnn(C)c1
6. COc1ccccc1C(=O)N1CCC(O)(c2cccc(C)c2C)CC1
7. CCCNC(=O)Nc1ncc(-c2cccnc2)s1

1. 44.3
2. 13.9
3. 29
4. 69.5
5. 53.4
6. 24.2
7. 15.5

Consider the following items and state reported INHIBITION for each.
1. CCn1cnnc1CNC(=O)c1ccc(Cl)cc1F
2. CC(C)c1nn(C)c(N(C)C)c1CNCc1cccc(CN(C)C)c1
3. CCn1cnnc1CNC(=O)c1cc(F)ccc1OC

1. 36.2
2. 21.8
3. 29.7

What value of INHIBITION on Plasmodium berghei does CCn1cnnc1CCNC(=O)c1ccc(Br)cc1F have?
25.5

###

Consider the following compounds; for each one, report its INHIBITION.
System: Plasmodium berghei
Experiment: Screen against P. berghei liver stage (PbLuc), transformed with Luciferase, at 10uM
Assay type: functional, HepG2
Conditions: tested at 10 uM
In all, about 69,000 compounds went through this assay and about 8,600 (12%) showed an effect of 50% or more. The sample holds strong results, similar compounds and a random draw of the others, so the mix is not that of the screen.
Give bare numbers, in %.

The following compounds have reported results that may help.
compound	tested_system	reported_measurement
CNC(=O)[C@@H](CC(C)C)N1CCC[C@H]1C(=O)N(C)Cc1cccnc1	Plasmodium berghei	45.1
CCN(CC)S(=O)(=O)c1cnccc1N1CCN(C(C)C)CC1	Plasmodium berghei	-26.8
COc1ccc2c(c1)CCN(CCC(=O)NC1CCCCC1)CC2	Plasmodium berghei	6.8
CCN1CCCc2cc(-c3cncn3C(C)CN3CCOCC3)ccc21 (centres undefined)	Plasmodium berghei	27.6
CC(Nc1c(F)cc(C#N)cc1F)c1cccc(S(N)(=O)=O)c1 (centres undefined)	Plasmodium berghei	-68.1

Consider the following items and state reported INHIBITION for each.
1. Cc1cccc(C(=O)Nc2cccc3c2CCCC3)n1
2. Cc1cnn(CC2CCCN2C(=O)c2c(C)noc2C)c1 (centres undefined)
3. CCN(CC)C(=O)[C@@H]1C[C@H](n2cc(-c3cccc(OC)c3)nn2)CN1

1. -45.5
2. 12.7
3. 16.9

Consider the following items and state reported INHIBITION for each.
1. COc1c(CNCc2cccc(Cn3ccnc3C)c2)c(C)nn1C
2. CCN(CC)CC1CN(Cc2nccs2)Cc2nccn2C1 (centres undefined)

1: 43.3; 2: -42.8

Consider the following items and state reported INHIBITION for each.
1. O=C(Nc1cccc2c1CCCC2)c1cccnc1N1CCCNCC1
2. CC(Cn1ccnc1)NC(=O)C1(c2ccccc2)CC1 (centres undefined)

1: 53; 2: 46.2

Consider the following items and state reported INHIBITION for each.
1. O=C(Nc1ccc2c(ccn2CCN2CCOCC2)c1)c1ccccn1
2. CCC(CN1CCOCC1)n1cncc1-c1ccc2c(c1)CCCN2C (centres undefined)
3. Cc1nc(C)n(C2CCCN(C(=O)Cc3cn4ccccc4n3)C2)n1 (centres undefined)
4. CC(O)CN1CCC(CN(C)CC(=O)NC2CCOCC2)CC1 (centres undefined)
5. CCc1nccn1CCCNC(=O)c1cnn(-c2ccccc2OC)c1
6. CCOc1ccc(Cl)c(C(=O)N2CCCN(CC(N)=O)CC2)n1
7. CCCc1cc(N2CCC(NCCc3ccc(O)cc3)CC2)nc(C)n1
8. Cc1ccc(CNC(=O)N2CCCC(NS(C)(=O)=O)C2)cc1 (centres undefined)

[-4.15, 39.7, 25.4, -8.31, -1.45, 47, 30.3, 9.64]

Numbers sourced from ChEMBL document CHEMBL4513216.
